- System: H3K27 methylation in G401 cell
- MEASUREMENT PROTOCOL: ELISA (H3K27 methylation) assay in G401 cells
- Assay type: cell-based, human
- EXPERIMENTAL CONTEXT: Homo sapiens, G-401, read-out: (c) IC50, ELISA Qualified
pIC50: −log10 of the molar value.
OBSERVED PROPERTY: pIC50

COc1ccccc1CNc1ccc(-c2ccc(CCN(C)C)cc2)c2nncn12 [Example 123] ... 7.00
COc1cccc(F)c1CNc1ccc(-c2cnc(S(C)(=O)=O)c(C)c2)c2nncn12 [Example 160] ... 7.83
COc1ccc(F)cc1CNc1ccc(-c2ccc(CN(C)C)cc2)c2nncn12 [Example 81] ... 6.03

1: COc1cc(F)c(F)cc1CNc1ccc(-c2ccc(CN(C)C)cc2)c2nncn12 [Example 103]
2: CCN1CCN(c2ccc(-c3ccc(NCc4ccccc4OC)n4cnnc34)cc2)CC1 [Example 152]
Input line: Parameter metric = pIC50. Return the lower-valued option from 1 and 2 . Your choice should be expressed through its label.
Output line: 1
(1: 5.09, 2: 6.99)
